# Test system: SN12C renal
# PROTOCOL: NCI-60 one-dose screen, 48 h
# STATED_CONDITIONS: 10 µM unless noted
About 83,000 compounds went through this panel and 20% of them were active in at least one assay; those are over-represented in the sample as a whole. The source made the active and inactive calls. Rule for the calls: active = growth percent below 10; inactive = the rest.
Please reply with one of these outcomes: active, inactive

# COMPOUND, TARGET_ENTITY, LABEL_VALUE
measured = [
    ("CC1=NN2C(=NC3=C(CCC/C3=C\\c3ccc(Cl)cc3)C2c2ccc(Cl)cc2)S1 (centres undefined)", "SN12C renal", "inactive"),
]

Assay outcome for `COc1cc2nc(SCc3cc(OC)c(OC)c(OC)c3)n(Cc3ccccc3)c(=O)c2cc1OC` : what was it?
inactive

Assay outcome for `COc1ccc(/C=C/C(=O)c2cc(OC)c(OC)c(OC)c2)cc1OCc1cn(Cc2ccc(F)cc2)nn1` : what was it?
inactive

Assay outcome for `COc1cc(C(=O)OCCCCCCCCCCC[P+](c2ccccc2)(c2ccccc2)c2ccccc2)ccc1O` : what was it?
active

Assay outcome for `COc1ncc(-c2ccc3ncnc(Nc4cccc(Cl)c4)c3c2)cc1N(S(C)(=O)=O)S(C)(=O)=O` : what was it?
inactive

Assay outcome for `O=C(/C=C/CN1CCOCC1)Nc1cc2c(Nc3ccc(F)c(Cl)c3F)ncnc2cc1OCCOC(F)F` : what was it?
inactive

Assay outcome for CCC(c1ccc(OC)cc1)C(CC)c1ccc(OCC[N+](C)(C)C)cc1 (centres undefined) : what was it?
inactive

Assay outcome for `COc1cc2oc(-c3cccc(NC(=O)Nc4ccc5c(c4)OCO5)c3)cc(=O)c2c(OC)c1OC` : what was it?
inactive

Assay outcome for `CCCCCCCC/C=C\CCCCCCCCOc1ccccc1CCOP(=O)(O)OCC[N+](C)(C)C` : what was it?
inactive
